The measured values listed here are drawn from PubChem BioAssay (NCI).

test system: M14 melanoma; experiment: NCI tumour cell line growth inhibition, 48 h
property_measured: TGI

compound	property_measured	experimental_value
CC(=O)Nc1ccc(C(=O)N[C@@H]2C(=O)N3[C@@H]2SC(C)(C)[C@@H]3C(=O)O)cn1	TGI	> 100 µM
OC1(c2ccc(Cl)cc2)c2ccccc2C2=Nc3ccccc3CN21 (centres undefined)	TGI	> 100 µM
CC1(c2cccc(C3CCC4(C=CC3=O)OCCO4)c2)OCCO1 (centres undefined)	TGI	20.1 µM
C[N+](C)(C)CCCCCc1c2nc(c(CCCCC[N+](C)(C)C)c3ccc([nH]3)c(CCCCC[N+](C)(C)C)c3ccc([nH]3)c(CCCCC[N+](C)(C)C)c3nc1C=C3)C=C2	TGI	> 100 µM

---

system: 786-0 renal; assay: NCI tumour cell line growth inhibition, 48 h
Below, each of the compounds is paired with its reported TGI value.

compound	system_name	TGI
CC1(C(O)c2ccccc2)CN(C(C)(C)C)C(=O)/C1=C\Sc1ccccc1 (configuration not stated)	786-0 renal	> 100 µM
NC12c3c4cccc3Oc3cccc(c31)Oc1cccc(c12)O4	786-0 renal	> 50 µM
Oc1ccc2ccccc2c1/C=N\Nc1ccccn1	786-0 renal	4.58 µM
CC(=O)OCCOCNC(=S)N/N=C(\C)c1ccco1	786-0 renal	> 100 µM
Cc1ccc(Cl)cc1Nc1nc(C(F)(F)F)ccc1C(=O)Oc1ccc(Cl)cc1	786-0 renal	30.8 µM
CC(C)(C)NCC(O)COc1cccc2[nH]c(C#N)cc12 (configuration not stated)	786-0 renal	> 100 µM
COc1nc2c(nc(N)n2C2OC(CO)C(O)C(O)C2O)c(=O)n1C (configuration not stated)	786-0 renal	> 100 µM
COc1ccc2c(c1)CCC(CN1CCN(CCOC(c3ccc(F)cc3)c3ccc(F)cc3)CC1)=C2	786-0 renal	27.2 µM
COC(=O)c1oc2c(C(=O)/C=C/c3ccc(OC)cc3)c(OCCCN3CCCCC3)ccc2c1C	786-0 renal	3.11 µM
C[N+](C)(C)CCCCCc1c2nc(c(CCCCC[N+](C)(C)C)c3ccc([nH]3)c(CCCCC[N+](C)(C)C)c3ccc([nH]3)c(CCCCC[N+](C)(C)C)c3nc1C=C3)C=C2	786-0 renal	> 100 µM
COc1cc(/C=C\c2ccc(SC)cc2)cc(OC)c1OC	786-0 renal	18.5 µM
Cn1cccc1-c1cc(-c2ccc(Br)cc2)nc(N)c1C#N	786-0 renal	> 100 µM
C[Si](C)(C)/C(Br)=C\CCN1C(=O)CCC1O (configuration not stated)	786-0 renal	> 100 µM
Cc1cc2c(=O)cc(-c3ccc(Cl)cc3)oc2c(C(=O)O)c1C	786-0 renal	> 100 µM
COc1ccc(C2CC(c3cc(OC)c(OC)c(OC)c3)=NN2)cc1 (configuration not stated)	786-0 renal	> 100 µM
Nc1nc(Cl)cc(NCC2(CO)CC(CCCCc3ccccc3)C2)n1 (configuration not stated)	786-0 renal	> 100 µM
Cc1nc2c(=O)[nH]c(=O)nc-2n(CCO)c1C	786-0 renal	> 100 µM
CC(=O)C1=CC=C/C1=N\Nc1ccccc1	786-0 renal	15.4 µM
CCOc1ccc2c(c1)/C(=C\C=C\C1CC(C)C3CC(OCC)CCC3N1CC)CC(C)N2CC (configuration not stated)	786-0 renal	2.98 µM
Cn1c(=O)c(Cc2ccc(F)cc2F)cc2cnc(NC3CCOCC3)nc21	786-0 renal	> 25 µM
CSC(=S)N/N=C(\C)c1ccccn1	786-0 renal	12.5 µM
O=C1NC(=NCc2ccccn2)S/C1=C\c1ccc2ncccc2c1	786-0 renal	> 25 µM
CC1=C(C)C(=O)C(C(C)C2=C(C)C(=O)C(C)=C(C)C2=O)=C(C)C1=O	786-0 renal	> 100 µM
COC(=O)C1Cc2c([nH]c3ccccc23)C=N1 (configuration not stated)	786-0 renal	> 100 µM
Cc1cc(SCC(=O)c2ccc(Br)cc2)cc(C)[o+]1	786-0 renal	> 100 µM
COC(=O)c1ccc2c(c1)nc(-c1ccc(Cl)cc1)n2-c1cc(C(C)(C)C)[nH]n1	786-0 renal	32 µM
C[C@H](NC(=O)OC1C2C=CC(O)C1CC2)c1ccccc1 (some centres not stated)	786-0 renal	> 100 µM
C[n+]1c2ccccc2c(NC2CCNCC2)c2[nH]c3ccccc3c21	786-0 renal	16.3 µM
Cc1ccc(Nc2ncnc3sc(SCc4ccccc4)nc23)cc1	786-0 renal	> 100 µM
CC(C)(C)c1ccccc1NS(=O)(=O)c1ccccc1	786-0 renal	> 100 µM
CC(C)(C)c1ccc(-c2nnc(SCc3ccc(Cl)cc3)n2-c2cccc(C(F)(F)F)c2)cc1	786-0 renal	> 100 µM
O=S1(=O)CSc2ccc3ccccc3c2-c2c1ccc1ccccc21	786-0 renal	> 100 µM
CCC(C#N)N(Cc1cccc(CN(C(C)=O)C(C#N)CC)c1)C(C)=O (configuration not stated)	786-0 renal	> 100 µM
Cc1cc(S(N)(=O)=O)c(S/C(=N\NS(=O)(=O)c2ccc(Cl)cc2)c2ccc(Cl)cc2)cc1Cl	786-0 renal	> 100 µM
CCOc1ccc(N=NC2C(=O)N(C(=O)CC(=O)Nc3ccc(Cl)cc3)N=C2C)cc1 (configuration not stated)	786-0 renal	> 100 µM
COC(=O)C1Cc2c([nH]c3ccccc23)-c2[nH]c3ccccc3c2CC(NC(C)=O)C(=O)NCC(=O)N1 (configuration not stated)	786-0 renal	> 100 µM
COC(=O)CSc1[nH]c2nc(C)nc(Nc3ccccc3)c2c1C#N	786-0 renal	> 10 µM
CC(O)CN(CCN(CC(C)O)CC(C)O)CC(C)O.O=[N+]([O-])O.[Cu+2] (configuration not stated)	786-0 renal	> 100 µM
CCOC(=O)c1ccc(N=C/C=C(\Nc2ccc(C(=O)OCC)cc2)c2ccc3ccccc3c2)cc1	786-0 renal	64.1 µM
CC(=O)NC1C(OCC(=O)NC(C)C(=O)NC(CCC(=O)NCCCCCNc2ccc([N+](=O)[O-])c3[nH]c4ccccc4c(=O)c23)C(N)=O)C(O)C(CO)OC1(C)OCc1ccccc1 (configuration not stated)	786-0 renal	> 50 µM
COc1cccc(-n2nnc3c(N)nc(N)nc32)c1	786-0 renal	> 100 µM
CCCCCCCCCCCCCC(=O)OCC1OC(OC)C(NC(=O)N(CCCl)N=O)C(O)C1O (configuration not stated)	786-0 renal	17 µM

---

tested on: LOX IMVI melanoma; experiment: NCI tumour cell line growth inhibition, 48 h; in the data active = GI50 below about 0.43 µM; inactive = the rest
Possible outcomes: active, inactive

compound	label_class
O=C1NC(=NCCc2ccccc2Cl)S/C1=C\c1ccc2ncccc2c1	inactive
Cc1cc(S(N)(=O)=O)c(S/C(=N\NS(=O)(=O)c2ccc(Cl)cc2)c2ccc(Cl)cc2)cc1Cl	inactive
O=C(NC(=S)NS(=O)(=O)c1ccc(N2N=C3c4ccccc4CC3C2c2cccs2)cc1)c1ccccc1 (stereo not given)	inactive
Cc1ccc(/C=C2\CCOC2=O)cc1	inactive
CC(=O)OC1CC2(O)C(CCC3(C)C(c4ccc(=O)oc4)CCC32O)C2(C)CCC(O)C=C12 (stereo not given)	active

---

system: OVCAR-4 ovarian; experiment: NCI tumour cell line growth inhibition, 48 h

compound	TGI
COC(=O)CCCc1ccc2c(c1)CCC2	> 100 µM
COc1cc(O)c(C(=O)/C=C/c2ccc(O)cc2)cc1Oc1ccc(C(=O)/C=C/c2ccc(O)cc2)c(O)c1	8.37 µM
Cc1nn(-c2ccccc2)c(C)c1/C=N/NC(=O)c1sc(=S)n(-c2ccc(Cl)cc2)c1N	95.7 µM
O=c1c2ccccc2nc(-c2ccc(Cl)cc2)n1O	> 100 µM
CCC1OC2C(CC=C(C)C)=C3OC(C)(O)C(C)(CC)C(O)C3=C3OC(=O)C=C1C32 (configuration not stated)	> 100 µM
Cc1ccc(/C=C2\CCOC2=O)cc1	> 100 µM
Cc1ccccc1NC(=O)NC(CC(N)=O)c1ccc2c(c1)nc(-c1cccc(Oc3ccc(C(C)(C)C)cc3)c1)n2CCCN1CCCCC1C (configuration not stated)	8.39 µM
Nc1nc(Cl)nc2c1ncn2C1O[C@H](CO)[C@@H](O)[C@@H]1F (some centres not stated)	> 100 µM
N#C/C(=C/N1CCN(C(=O)c2ccco2)C1=S)C(N)=O	73.8 µM
COC(=O)c1nc2c(C)c(O)c(O)c([C@H](C)CCC=C(C)C)c2o1	> 100 µM
CCC1=C(C)C2=NC1=CC1=NC(=C(CC)/C1=C/O)C=C1N=C3C(=C1C)C(=O)C(C(=O)OC)C3=C1NC(=C2)C(C)C1CCC(=O)OC (configuration not stated)	> 100 µM
COC(=O)c1ccc(/C=C/C2=CC(=O)C=CC2=O)cc1	42 µM
CCN(CC)P1(=S)Oc2ccc3ccccc3c2-c2c(ccc3ccccc23)O1	> 100 µM
CCCCCCCCSC1=CC(=O)C(OC)=C(OC)C1=O	3.14 µM
CCOC(=O)Cc1csc(/N=C\c2c(O)c3ccccc3oc2=O)n1	> 100 µM
Cc1c(Cl)cccc1NC(=O)C(=O)C1C(=O)NC(=O)NC1=O	> 100 µM
O=Nc1c(-c2cccc([N+](=O)[O-])c2)nc2ncccn12	55.2 µM
O=C1c2cc3c(cc2-c2c1c1ccc([N+](=O)[O-])cc1c(=O)n2CCCCl)OCO3	> 100 µM
CC(=O)O[C@H]1C(=O)[C@]2(C)[C@@H](OC(=O)OCC(O)CO)C[C@H]3OC[C@@]3(OC(C)=O)[C@H]2[C@H](OC(=O)c2ccccc2)[C@]2(O)C[C@H](OC(=O)[C@H](O)[C@@H](NC(=O)c3ccccc3)c3ccccc3)C(C)=C1C2(C)C (some centres not stated)	> 83.9 µM
COC(=O)CSc1[nH]c2nc(C)nc(Nc3ccccc3)c2c1C#N	> 10 µM
O=C(/C=C1\N=C(c2ccccc2)N(c2ccc3c(c2)Sc2cc(N4C(=O)/C(=C/C(=O)/C=C/c5ccccc5)N=C4c4ccccc4)ccc2N3)C1=O)/C=C/c1ccccc1	41.8 µM
CC(=O)OC1COC(N2C(=O)C(=O)c3cc(Br)c([N+](=O)[O-])cc32)C(OC(C)=O)C1OC(C)=O (configuration not stated)	> 100 µM
